tested-system: T1, cyno IL-23 (cyno, limits assumed)
T1 construct: Heterodimer of p19 and p40; also called cynomolgus IL-23
T1 chain 1: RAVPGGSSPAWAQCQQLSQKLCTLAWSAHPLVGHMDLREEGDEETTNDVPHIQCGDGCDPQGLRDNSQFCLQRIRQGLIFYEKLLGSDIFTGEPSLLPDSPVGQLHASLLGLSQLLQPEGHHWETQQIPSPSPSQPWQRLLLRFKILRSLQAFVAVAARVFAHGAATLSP
T1 chain 2: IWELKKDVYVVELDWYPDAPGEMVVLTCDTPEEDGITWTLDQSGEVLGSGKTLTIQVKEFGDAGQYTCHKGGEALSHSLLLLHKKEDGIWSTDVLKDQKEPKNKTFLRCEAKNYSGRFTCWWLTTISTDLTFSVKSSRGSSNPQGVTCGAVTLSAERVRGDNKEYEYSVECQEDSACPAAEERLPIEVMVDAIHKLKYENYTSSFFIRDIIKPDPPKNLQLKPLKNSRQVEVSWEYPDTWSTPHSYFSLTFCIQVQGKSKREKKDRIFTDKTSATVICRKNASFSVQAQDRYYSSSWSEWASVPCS
run-description: SPR Biacore, purified mAb captured on anti-human IgG, cyno IL-23 64-0.062 nM
reported-property: Kd (nM)
Your answer is read as nM, so omit the unit and give the number.

binder="A5M12 (antibody, human IgG1, V domains shown) VH: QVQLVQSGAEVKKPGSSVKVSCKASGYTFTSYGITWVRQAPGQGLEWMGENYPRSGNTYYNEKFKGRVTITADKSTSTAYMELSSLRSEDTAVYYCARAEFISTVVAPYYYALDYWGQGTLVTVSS VL: DIVMTQSPDSLAVSLGERATINCKASKKVTIYGSTSALHWYQQKPGQPPKLIYNGAKPESGVPDRFSGSGSGTDFTLTISSLQAEDVAVYYCLQNKEVPYTFGGGTKVEIK" unit_of_measure=nM endpoint_value=0.093
binder="A5M21 (antibody, human IgG1, kappa, V domains shown) VH: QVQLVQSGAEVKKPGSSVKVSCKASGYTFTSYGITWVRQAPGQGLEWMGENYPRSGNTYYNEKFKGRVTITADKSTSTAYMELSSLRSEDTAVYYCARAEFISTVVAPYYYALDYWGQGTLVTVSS VL: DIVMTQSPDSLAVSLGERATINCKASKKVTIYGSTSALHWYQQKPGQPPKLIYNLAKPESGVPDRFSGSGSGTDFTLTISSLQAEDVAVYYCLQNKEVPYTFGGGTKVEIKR" unit_of_measure=nM endpoint_value=0.075
binder="A24AM4 (antibody, human IgG1, kappa, V domains shown) VH: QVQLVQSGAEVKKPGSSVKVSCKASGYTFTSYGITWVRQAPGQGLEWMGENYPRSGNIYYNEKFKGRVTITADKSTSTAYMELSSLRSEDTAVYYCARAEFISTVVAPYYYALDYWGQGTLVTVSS VL: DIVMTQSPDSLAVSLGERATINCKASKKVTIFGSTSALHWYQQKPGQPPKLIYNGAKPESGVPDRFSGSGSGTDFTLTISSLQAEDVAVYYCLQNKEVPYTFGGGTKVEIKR" unit_of_measure=nM endpoint_value=0.085

Ask: Quote Kd reported for A5M20 (antibody, human IgG1, kappa, V domains shown) VH: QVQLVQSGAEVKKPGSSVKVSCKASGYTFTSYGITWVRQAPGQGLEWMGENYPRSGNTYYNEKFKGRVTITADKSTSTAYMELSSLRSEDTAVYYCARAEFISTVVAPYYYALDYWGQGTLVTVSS VL: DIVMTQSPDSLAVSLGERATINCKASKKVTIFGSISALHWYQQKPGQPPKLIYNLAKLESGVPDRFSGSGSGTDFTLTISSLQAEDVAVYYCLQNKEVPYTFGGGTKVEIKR please.
Result: 0.086
